target: human orexin 1 receptor (hOx1R) (Homo sapiens); construct: expressed in transfected cells; assay: Calcium accumulation in cells (FLIPR), antagonism of orexin A, hOx1R; format: cell-based; conditions: cells expressing human orexin 1 receptor; IC50 vs orexin A converted by Cheng and Prusoff correction
Sequence (O43613 whole entry): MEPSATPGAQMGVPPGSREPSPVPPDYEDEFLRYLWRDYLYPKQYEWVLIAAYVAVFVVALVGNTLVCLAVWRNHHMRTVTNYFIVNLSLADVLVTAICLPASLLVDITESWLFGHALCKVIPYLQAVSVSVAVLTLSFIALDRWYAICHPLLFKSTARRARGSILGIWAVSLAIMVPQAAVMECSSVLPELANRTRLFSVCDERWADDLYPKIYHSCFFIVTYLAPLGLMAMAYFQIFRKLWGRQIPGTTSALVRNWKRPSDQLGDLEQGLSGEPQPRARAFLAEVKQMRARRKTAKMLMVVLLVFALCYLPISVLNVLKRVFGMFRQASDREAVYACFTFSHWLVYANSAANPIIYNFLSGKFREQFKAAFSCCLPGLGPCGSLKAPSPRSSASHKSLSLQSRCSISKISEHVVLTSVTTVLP
Metric name: Kd (µM)
Give a bare numeral; the unit µM is implied.

Record `CN(C(=O)c1ccc2c(c1)OCO2)[C@H](CCNC(=O)c1ccccn1)Cc1ccccc1` / human orexin 1 receptor (hOx1R) (Homo sapiens), Kd recorded as 0.228

Record `CN(C(=O)c1cccc2[nH]ccc12)[C@H](CCNC(=O)c1nc2ccccc2n1C)Cc1ccccc1` / human orexin 1 receptor (hOx1R) (Homo sapiens), Kd recorded as 0.048

Record `CCCOc1cccc(C(=O)N(C)[C@H](CCNC(=O)c2cccn2C)Cc2ccccc2)c1` / human orexin 1 receptor (hOx1R) (Homo sapiens), Kd recorded as 2.1

Record `CN(C(=O)c1ccccc1)[C@H](CCNC(=O)c1nc2ccccc2n1C)Cc1ccccc1` / human orexin 1 receptor (hOx1R) (Homo sapiens), Kd recorded as 0.868

Record `CN(C(=O)c1ccccc1)[C@H](CCNC(=O)c1ccccn1)[C@@H](F)c1ccccc1` / human orexin 1 receptor (hOx1R) (Homo sapiens), Kd recorded as 1.55

Record `CN(C(=O)c1cc(C(F)(F)F)cc(C(F)(F)F)c1)[C@H](CCNC(=O)c1nc2ccccc2n1C)Cc1ccccc1` / human orexin 1 receptor (hOx1R) (Homo sapiens), Kd recorded as 0.437

Record `CN(C(=O)c1ccc2ccccc2c1)[C@@H](CCNC(=O)c1ccccn1)Cc1ccccc1` / human orexin 1 receptor (hOx1R) (Homo sapiens), Kd recorded as 0.941

Record `COc1ccc(C(=O)N(C)[C@H](CCNC(=O)c2nc3ccccc3n2C)Cc2ccccc2)cc1OC` / human orexin 1 receptor (hOx1R) (Homo sapiens), Kd recorded as 0.541

Record `COc1cccc(C(=O)N(C)[C@H](CCNC(=O)c2cccn2C)Cc2ccccc2)c1` / human orexin 1 receptor (hOx1R) (Homo sapiens), Kd recorded as 1.4

Record `CN(C(=O)c1ccc2c(c1)OCO2)[C@H](CCNC(=O)c1cc2ccccc2n1C)Cc1ccccc1` / human orexin 1 receptor (hOx1R) (Homo sapiens), Kd recorded as 0.267

Record `COc1ccc(C(=O)N(C)[C@H](CCNC(=O)c2cccn2C)Cc2ccccc2)cc1OC` / human orexin 1 receptor (hOx1R) (Homo sapiens), Kd recorded as 0.182

Record `COc1cc(OC)cc(C(=O)N(C)[C@H](CCNC(=O)c2cccn2C)Cc2ccccc2)c1` / human orexin 1 receptor (hOx1R) (Homo sapiens), Kd recorded as 0.609

Record `CN(C(=O)c1ccc2[nH]ccc2c1)[C@H](CCNC(=O)c1ccccn1)Cc1ccccc1` / human orexin 1 receptor (hOx1R) (Homo sapiens), Kd recorded as 0.016

Record `CN(C(=O)c1ccc2c(c1)OCO2)[C@H](CCNC(=O)c1cc2ccccc2[nH]1)Cc1ccccc1` / human orexin 1 receptor (hOx1R) (Homo sapiens), Kd recorded as 0.609

Record `CN(C(=O)c1cccc2[nH]ccc12)[C@H](CCNC(=O)c1ccccn1)Cc1ccccc1` / human orexin 1 receptor (hOx1R) (Homo sapiens), Kd recorded as 0.022

Record `CN(C(=O)c1ccc2ccccc2c1)[C@H](CCNC(=O)c1nc2ccccc2n1C)Cc1ccccc1` / human orexin 1 receptor (hOx1R) (Homo sapiens), Kd recorded as 0.033
